Target: Lysophosphatidic acid receptor 3 (Homo sapiens)
Sequence (Q9UBY5 whole entry): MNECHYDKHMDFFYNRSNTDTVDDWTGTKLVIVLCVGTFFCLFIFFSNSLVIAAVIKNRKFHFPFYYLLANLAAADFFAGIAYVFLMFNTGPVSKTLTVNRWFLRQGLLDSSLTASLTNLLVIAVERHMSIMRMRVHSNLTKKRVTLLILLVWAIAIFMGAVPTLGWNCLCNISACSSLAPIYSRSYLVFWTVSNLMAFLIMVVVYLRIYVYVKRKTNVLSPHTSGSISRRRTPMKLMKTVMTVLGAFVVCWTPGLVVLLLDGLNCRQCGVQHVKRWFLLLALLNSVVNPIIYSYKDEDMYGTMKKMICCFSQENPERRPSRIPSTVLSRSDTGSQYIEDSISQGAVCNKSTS
Test: Antagonist activity at LPA3 expressed in RH7777 cells with Gi4-protein and aequorin by calcium mobilization assay
pIC50: −log10 of the molar value.

# compound, censoring_qualifier, pIC50
measured = [
    ("Cc1ccccc1N1CCN(C[C@H](C)Nc2ncnc3c(C)csc23)CC1", "<", 4.30),
    ("Cc1noc(-c2ccccc2)c1NC(=O)OC(C)c1ccccc1 (centres undefined)", "=", 4.92),
    ("Cc1csc2c(N[C@@H](C)CN3CCN(S(=O)(=O)c4ccc(Cl)c(Cl)c4)CC3)ncnc12", "<", 4.30),
    ("COc1cc(OC)cc(C(=O)N(CCCc2ccccc2)Cc2ccc(Oc3ccccc3C(=O)O)cc2)c1", "=", 7.40),
]

Origin of the recorded values: ChEMBL document CHEMBL1143154
